Record form. Attribute: microsomal CLint at 2 μM. Fill in for each entry.
experiment: Mouse liver microsomes stability with NADPH; conditions: male, mouse, microsomes
Answers are plain numbers, in µL/min/mg.

>>> print(df.to_string())
                                   molecule  recorded_result
0  [2H]C([2H])(c1c[nH]c2cccc(O)c12)[C@H]1CCCN1 [Compound I-50]             18.6

Count: 3. Required value per item: microsomal CLint at 2 μM.
1. [2H]C([2H])([2H])N1CCC[C@@H]1Cc1c[nH]c2cccc(O)c12 [Compound I-2]
2. [2H]C([2H])(c1c[nH]c2cccc(OC)c12)[C@H]1CCCN1C([2H])([2H])[2H] [Compound I-39]
3. [2H]C([2H])(c1c[nH]c2cccc(O)c12)[C@H]1CCCN1C([2H])([2H])[2H] [Compound I-44]

1. 16.2
2. 14.4
3. 19.5

----------
target: human 5-HT2A (h5-HT2A) receptor (Homo sapiens (Human), UniProt P28223); test: FLIPR calcium assay, human 5-HT2A receptor, agonist mode; type: cell-based
assay endpoint: EC50

Reference set, count: 5
>>> df
                                   compound  assay_endpoint  recorded_result
0  [2H]C([2H])([2H])N1CCC[C@@H]1Cc1c[nH]c2cccc(OCc3ccccc3)c12 [Compound I-45]            EC50          > 10 µM
1  [2H]C([2H])([2H])N1CCC[C@@H]1Cc1c[nH]c2cccc(F)c12 [Compound I-40]            EC50           < 1 µM
2  [2H]C([2H])(c1c[nH]c2cccc(Cl)c12)[C@H]1CCCN1C([2H])([2H])[2H] [Compound I-38]            EC50          > 10 µM
3  Oc1cccc2[nH]cc(C[C@H]3CCCN3)c12 [Compound I-3]            EC50           < 1 µM
4  CN1CCC[C@@H]1Cc1c[nH]c2cccc(OCc3ccccc3)c12 [Compound I-46]            EC50          > 10 µM

Count: 2. Required value per item: EC50.
1. [2H]C([2H])([2H])N1CCC[C@@H]1Cc1c[nH]c2cccc(O)c12 [Compound I-2]
2. [2H]C([2H])(c1c[nH]c2cccc(OP(=O)(O)O)c12)[C@H]1CCCN1C([2H])([2H])[2H] [Compound I-54]

1: < 1 µM; 2: 1 to 10 µM

Form field: reported EC50 of [2H]C([2H])(c1c[nH]c2cccc(F)c12)[C@H]1CCCN1 [Compound I-41]
1 to 10 µM

----------
experiment: Human liver microsomes stability with NADPH; details: human, microsomes
assay endpoint: half-life at 2 μM (h)
Answers are plain numbers, in h.

Reference set, count: 2
                            compound_smiles     assay_endpoint  units  recorded_result
0  [2H]C([2H])(c1c[nH]c2cccc(O)c12)[C@H]1CCCN1  half-life at 2 μM      h             1.89
1  [2H]C([2H])([2H])N1CCC[C@@H]1Cc1c[nH]c2cccc(O)c12  half-life at 2 μM      h             3.51

Count: 6. Required value per item: half-life at 2 μM.
1. [2H]C([2H])(c1c[nH]c2cccc(OC)c12)[C@H]1CCCN1C([2H])([2H])[2H]
2. [2H]C([2H])([2H])N1CCC[C@@H]1Cc1c[nH]c2cccc(F)c12
3. [2H]C([2H])(c1c[nH]c2cccc(OC(=O)CCCCCCC/C=C\C/C=C\CCCCC)c12)[C@H]1CCCN1C([2H])([2H])[2H]
4. [2H]C([2H])(c1c[nH]c2cccc(O)c12)[C@H]1CCCN1C([2H])([2H])[2H]
5. [2H]C([2H])([2H])N1CCC[C@@H]1Cc1c[nH]c2cccc(OC(=O)CCCCCCC/C=C\C/C=C\CCCCC)c12
6. [2H]C([2H])(c1c[nH]c2cccc(F)c12)[C@H]1CCCN1C([2H])([2H])[2H]

[2.27, 0.673, 4.9, 2.81, 1.22, 0.607]

The origin of these recorded values is patent US11453689B2.
